Reported inhibition at 6500 µg/mL values are given for each entry in this list.
Tested on: Mycobacterium tuberculosis H37Rv
method_notes: Antitubercular activity, Resazurin Assay method
Assay type: cell-based
condition_set: Mycobacterium tuberculosis, H37RV

compound: CCC1C(=NOCc2cc(-c3ccc(Cl)cc3)no2)CC(c2ccccc2)OC1c1ccccc1 (stereo not shown)
qualifier: =
inhibition at 6500 µg/mL (%): 91
--
compound: CC1C(=NOCc2cn(-c3ccccc3)nn2)CC(c2ccccc2)OC1c1ccccc1 (stereo not shown)
qualifier: =
inhibition at 6500 µg/mL (%): 75
--
compound: CCC1C(=NOCc2cn(-c3ccccc3)nn2)CC(c2ccccc2)OC1c1ccccc1 (stereo not shown)
qualifier: =
inhibition at 6500 µg/mL (%): 70
--
compound: NNC(=O)c1ccncc1 [INH, isoniazid, reference compound]
qualifier: >
inhibition at 6500 µg/mL (%): 95
--
compound: NC(=O)c1cnccn1 [PZA, pyrazinamide, reference compound]
qualifier: >
inhibition at 6500 µg/mL (%): 90
--
compound: CC[C@@H](CO)NCCN[C@@H](CC)CO [EMB, Ethambutol, reference compound]
qualifier: >
inhibition at 6500 µg/mL (%): 95
--
compound: CC1C(=NOCc2cc(-c3ccc(Cl)cc3)no2)CC(c2ccccc2)OC1c1ccccc1 (stereo not shown)
qualifier: =
inhibition at 6500 µg/mL (%): 90

---

A. niger: recorded MIC for assorted molecules

molecule: CC1C(=NOCc2cn(-c3ccccc3)nn2)CC(c2ccccc2)OC1c1ccccc1 (stereo not shown) [Compound 25]
unit_tag: µg/mL
MIC: 50

molecule: CCC1C(=NOCc2cn(-c3ccccc3)nn2)CC(c2ccccc2)OC1c1ccccc1 (stereo not shown) [Compound 26]
unit_tag: µg/mL
MIC: 25

molecule: CC1C(=NOCc2cc(-c3ccc(Cl)cc3)no2)CC(c2ccccc2)OC1c1ccccc1 (stereo not shown) [Compound 31]
unit_tag: µg/mL
MIC: 50

molecule: CCC1C(=NOCc2cc(-c3ccc(Cl)cc3)no2)CC(c2ccccc2)OC1c1ccccc1 (stereo not shown) [Compound 32]
unit_tag: µg/mL
MIC: 25

---

Listing of entries alongside the reported MIC.
System: Mycobacterium tuberculosis H37Rv
method_notes: Antitubercular activity, Resazurin Assay method
Type: cell-based
condition_set: Mycobacterium tuberculosis, H37RV
readout_label: MIC (µg/mL)

compound: CC[C@@H](CO)NCCN[C@@H](CC)CO [EMB, Ethambutol, reference compound]
target_entity: Mycobacterium tuberculosis H37Rv
unit_tag: µg/mL
reading: 1.56

compound: CC1C(=NOCc2cc(-c3ccc(Cl)cc3)no2)CC(c2ccccc2)OC1c1ccccc1 (stereo not shown) [Compound 31]
target_entity: Mycobacterium tuberculosis H37Rv
unit_tag: µg/mL
reading: 6.25

compound: CC1C(=NOCc2cn(-c3ccccc3)nn2)CC(c2ccccc2)OC1c1ccccc1 (stereo not shown) [Compound 25]
target_entity: Mycobacterium tuberculosis H37Rv
unit_tag: µg/mL
reading: 6.25

compound: CCC1C(=NOCc2cn(-c3ccccc3)nn2)CC(c2ccccc2)OC1c1ccccc1 (stereo not shown) [Compound 26]
target_entity: Mycobacterium tuberculosis H37Rv
unit_tag: µg/mL
reading: 6.25

compound: NC(=O)c1cnccn1 [PZA, pyrazinamide, reference compound]
target_entity: Mycobacterium tuberculosis H37Rv
unit_tag: µg/mL
reading: 6.25

compound: NNC(=O)c1ccncc1 [INH, isoniazid, reference compound]
target_entity: Mycobacterium tuberculosis H37Rv
unit_tag: µg/mL
reading: 0.1

compound: CCC1C(=NOCc2cc(-c3ccc(Cl)cc3)no2)CC(c2ccccc2)OC1c1ccccc1 (stereo not shown) [Compound 32]
target_entity: Mycobacterium tuberculosis H37Rv
unit_tag: µg/mL
reading: 6.25

Data origin: paper PMC10062711
